Each recorded value in this set is attributed to ChEMBL document CHEMBL5108059.

biological target: Serine/threonine-protein kinase mTOR (Rattus norvegicus, UniProt P42346); experiment: Inhibition of rat brain mTOR using GST-p70S6K fusion protein as substrate preincubated for 30 mins followed by ATP addition and measured after 30 mins by K-Lisa assay
MEASUREMENT_TYPE: pIC50
Scale explanation: pIC50 corresponds to minus log10 of a concentration expressed in moles per litre.

[in] Recorded pIC50 for Cc1nc2cnc3ccc(-c4cnc5[nH]ccc5c4)cc3c2n1-c1ccc(C(C)(C)C#N)nc1 , please?
[out] 7.68

###

biological target: Phosphatidylinositol 4,5-bisphosphate 3-kinase catalytic subunit gamma isoform (Homo sapiens); assay: Inhibition of PI3Kgamma (unknown origin) using PIP2 as substrate incubated for 2 hrs in presence of ATP by Kinase Glo luminescence assay
Sequence (P48736 whole entry, canonical isoform): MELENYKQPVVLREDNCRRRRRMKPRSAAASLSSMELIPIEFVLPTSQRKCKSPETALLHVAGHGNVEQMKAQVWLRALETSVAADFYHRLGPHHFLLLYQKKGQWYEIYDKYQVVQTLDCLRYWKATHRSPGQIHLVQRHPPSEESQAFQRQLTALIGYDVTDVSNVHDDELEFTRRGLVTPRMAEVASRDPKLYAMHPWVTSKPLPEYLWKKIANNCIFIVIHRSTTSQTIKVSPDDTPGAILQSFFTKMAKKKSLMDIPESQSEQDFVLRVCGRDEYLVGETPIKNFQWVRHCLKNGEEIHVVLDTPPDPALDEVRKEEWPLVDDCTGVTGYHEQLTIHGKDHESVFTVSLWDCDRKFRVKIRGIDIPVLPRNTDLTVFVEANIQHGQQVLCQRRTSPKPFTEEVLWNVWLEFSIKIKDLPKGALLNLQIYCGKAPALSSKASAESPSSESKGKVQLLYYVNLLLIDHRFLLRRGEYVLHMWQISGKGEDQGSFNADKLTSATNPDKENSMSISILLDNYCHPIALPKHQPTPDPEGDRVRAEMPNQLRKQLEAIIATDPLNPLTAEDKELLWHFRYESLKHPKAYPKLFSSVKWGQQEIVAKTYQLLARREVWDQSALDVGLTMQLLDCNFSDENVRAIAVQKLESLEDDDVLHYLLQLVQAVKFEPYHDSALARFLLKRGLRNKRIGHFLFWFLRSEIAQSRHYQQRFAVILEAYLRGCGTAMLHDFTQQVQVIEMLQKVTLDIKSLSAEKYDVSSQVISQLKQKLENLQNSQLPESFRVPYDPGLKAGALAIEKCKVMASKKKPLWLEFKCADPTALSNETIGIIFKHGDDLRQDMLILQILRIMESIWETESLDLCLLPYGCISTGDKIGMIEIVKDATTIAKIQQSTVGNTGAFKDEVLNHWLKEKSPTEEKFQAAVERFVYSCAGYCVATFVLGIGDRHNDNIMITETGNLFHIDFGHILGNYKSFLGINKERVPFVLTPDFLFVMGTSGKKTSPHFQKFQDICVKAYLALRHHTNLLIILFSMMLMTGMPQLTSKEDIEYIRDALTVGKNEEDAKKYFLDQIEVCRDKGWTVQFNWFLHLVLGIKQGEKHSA
MEASUREMENT_TYPE: IC50 (nM)
Please respond with the number in nM and leave the unit unwritten.

[in] Recorded IC50 for Cc1nc2cnc3ccc(-c4cnc5[nH]ccc5c4)cc3c2n1-c1ccc(C(C)(C)C#N)nc1 , please?
[out] 79.3

###

target: Phosphatidylinositol 4,5-bisphosphate 3-kinase catalytic subunit alpha isoform (Homo sapiens, UniProt P42336); assay: Inhibition of PI3Kalpha (unknown origin) using L-alpha-phosphatidylinositol as substrate incubated for 60 mins in presence of ATP by Kinase Glo luminescence assay
Sequence (P42336 whole entry, canonical isoform): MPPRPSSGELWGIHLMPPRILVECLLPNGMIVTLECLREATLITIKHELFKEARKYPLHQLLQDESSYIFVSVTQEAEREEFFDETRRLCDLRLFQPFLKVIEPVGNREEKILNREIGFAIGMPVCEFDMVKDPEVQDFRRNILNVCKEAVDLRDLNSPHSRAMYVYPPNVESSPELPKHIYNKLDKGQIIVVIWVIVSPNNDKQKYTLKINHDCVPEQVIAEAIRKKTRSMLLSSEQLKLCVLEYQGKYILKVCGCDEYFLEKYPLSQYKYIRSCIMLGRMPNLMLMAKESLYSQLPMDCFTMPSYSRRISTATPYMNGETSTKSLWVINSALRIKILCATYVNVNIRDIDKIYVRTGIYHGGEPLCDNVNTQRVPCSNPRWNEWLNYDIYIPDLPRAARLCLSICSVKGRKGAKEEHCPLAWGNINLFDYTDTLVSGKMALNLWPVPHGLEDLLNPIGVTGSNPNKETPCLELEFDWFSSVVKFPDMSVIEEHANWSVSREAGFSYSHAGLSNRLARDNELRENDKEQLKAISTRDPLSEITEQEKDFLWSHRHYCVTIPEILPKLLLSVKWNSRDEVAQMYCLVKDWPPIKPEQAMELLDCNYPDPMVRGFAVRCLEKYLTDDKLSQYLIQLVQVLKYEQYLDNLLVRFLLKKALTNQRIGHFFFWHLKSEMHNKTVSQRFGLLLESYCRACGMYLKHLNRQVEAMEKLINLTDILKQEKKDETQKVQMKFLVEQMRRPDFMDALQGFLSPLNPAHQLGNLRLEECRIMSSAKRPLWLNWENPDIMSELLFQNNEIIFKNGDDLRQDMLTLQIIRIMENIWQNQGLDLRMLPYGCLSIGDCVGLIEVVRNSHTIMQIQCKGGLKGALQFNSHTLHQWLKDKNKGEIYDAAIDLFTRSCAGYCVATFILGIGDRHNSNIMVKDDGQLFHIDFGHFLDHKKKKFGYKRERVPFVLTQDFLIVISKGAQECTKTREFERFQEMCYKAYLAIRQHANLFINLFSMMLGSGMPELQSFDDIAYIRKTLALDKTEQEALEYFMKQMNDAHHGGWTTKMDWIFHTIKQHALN
MEASUREMENT_TYPE: pIC50
Scale explanation: pIC50 corresponds to minus log10 of a concentration expressed in moles per litre.

[in] Recorded pIC50 for Cc1nc2cnc3ccc(-c4cnc5[nH]ccc5c4)cc3c2n1-c1ccc(C(C)(C)C#N)nc1 , please?
[out] 8.40

###

biological target: Phosphatidylinositol 4,5-bisphosphate 3-kinase catalytic subunit alpha isoform (Homo sapiens); experiment: Inhibition of PI3Kalpha (unknown origin) using PIP2 as substrate incubated for 1 hr in presence of ATP by Kinase Glo luminescence assay
MEASUREMENT_TYPE: pIC50
Scale explanation: pIC50 corresponds to minus log10 of a concentration expressed in moles per litre.

Cc1nc2cnc3ccc(-c4cnc5[nH]ccc5c4)cc3c2n1[C@@H](C)c1ccc(F)cc1 = 6.85
Cc1nc2cnc3ccc(-c4cnc5[nH]ccc5c4)cc3c2n1-c1ccc(CC#N)cc1 = 6.86
COc1ccc(-n2c(C)nc3cnc4ccc(-c5cnc6[nH]ccc6c5)cc4c32)cc1 = 7.58

[in] Recorded pIC50 for Cc1nc2cnc3ccc(-c4ccc(Cl)cc4)cc3c2n1-c1ccc(F)cc1 , please?
[out] 6.24

[in] Item: CC(=O)c1ccc(-c2ccc3ncc4nc(C)n(-c5ccc(F)cc5)c4c3c2)cc1
[out] 6.52

###

biological target: Serine/threonine-protein kinase mTOR (Homo sapiens, UniProt P42345); experiment: Inhibition of N-terminal FLAG-tagged recombinant human mTOR (1362 to end residue) using ULight-4EBP1 peptide as substrate incubated for 30 mins in presence of ATP by Lance ultra assay
Mark criterion met only for IC50 values smaller than 100 nM; exact matches and larger values are criterion not met.

CC(=O)c1ccc(-c2ccc3ncc4nc(C)n(-c5ccc(F)cc5)c4c3c2)cc1 = criterion not met

[in] Dear colleague, could you confirm whether IC50 of Cc1nc2cnc3ccc(-c4cnc5[nH]ccc5c4)cc3c2n1[C@@H](C)c1ccc(F)cc1 falls below 100 nM? Thanks.
[out] criterion met

[in] Item: Cc1nc2cnc3ccc(-c4cnc5[nH]ccc5c4)cc3c2n1-c1ccc(C(F)(F)F)nc1
[out] criterion not met

[in] Item: Cc1nc2cnc3ccc(-c4cnc5[nH]ccc5c4)cc3c2n1C1CC1
[out] criterion not met
